assayed-target: human recombinant serotonin (5-Hydroxytryptamine) 5-HT2A receptor (Homo sapiens, UniProt P28223)
Construct: expressed in transfected cells; host or cells: CHO-K1
Sequence (P28223 whole entry): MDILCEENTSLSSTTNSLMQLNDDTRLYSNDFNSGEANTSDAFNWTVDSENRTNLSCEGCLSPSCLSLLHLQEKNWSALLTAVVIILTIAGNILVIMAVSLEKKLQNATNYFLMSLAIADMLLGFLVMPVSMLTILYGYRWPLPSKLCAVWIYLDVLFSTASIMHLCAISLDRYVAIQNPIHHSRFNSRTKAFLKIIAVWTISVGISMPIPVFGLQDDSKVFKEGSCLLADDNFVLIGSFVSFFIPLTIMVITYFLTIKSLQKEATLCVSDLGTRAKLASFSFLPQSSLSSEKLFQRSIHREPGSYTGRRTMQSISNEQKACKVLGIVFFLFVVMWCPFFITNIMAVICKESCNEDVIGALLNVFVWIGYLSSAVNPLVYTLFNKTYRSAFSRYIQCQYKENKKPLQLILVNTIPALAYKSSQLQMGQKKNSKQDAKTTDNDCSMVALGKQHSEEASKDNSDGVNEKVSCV
method-description: Serotonin 5-HT2A radioligand binding ([3H]Ketanserin)
condition-description: compound at 0.1 μM; read-out: Inhibition of ligand binding, Serotonin 5-HT2A (percent inhibition of specific binding)
inhibition at 0.1 µM by entry:
// units = %; emit number, no label

Worked examples, 5 compounds total:
| substance-smiles | measure-unit | test-result |
| --- | --- | --- |
| Cc1ccc2c(c1)c1c(n2-c2cccc(-c3cncc4ccccc34)c2)CCN(C)C1 | % | 75 |
| Cc1ccc2c(c1)c1c(n2-c2cscc2C(=O)N(C)C)CCN(C)C1 | % | 31 |
| Cc1ccc2c(c1)c1c(n2-c2cccc(-c3ccc4c(ccn4C)c3)c2)CCN(C)C1 | % | 89 |
| Cc1ccc2c(c1)c1c(n2-c2ccc(-c3ccnn3C)cn2)CCN(C)C1 | % | 57 |
| Cc1ccc2c(c1)c1c(n2-c2ccccc2-c2ccccc2)CCN(C)C1 | % | 99 |

Please look at the following compound next.
# query: inhibition at 0.1 µM of entry CN1CCc2c(c3cc(Cl)ccc3n2-c2cscc2-c2cccnc2)C1
67

====

assayed-target: human recombinant serotonin (5-Hydroxytryptamine) 5-HT2C receptor (Homo sapiens)
Construct: expressed in transfected cells; host or cells: CHO-K1
Sequence (P28335 33-458): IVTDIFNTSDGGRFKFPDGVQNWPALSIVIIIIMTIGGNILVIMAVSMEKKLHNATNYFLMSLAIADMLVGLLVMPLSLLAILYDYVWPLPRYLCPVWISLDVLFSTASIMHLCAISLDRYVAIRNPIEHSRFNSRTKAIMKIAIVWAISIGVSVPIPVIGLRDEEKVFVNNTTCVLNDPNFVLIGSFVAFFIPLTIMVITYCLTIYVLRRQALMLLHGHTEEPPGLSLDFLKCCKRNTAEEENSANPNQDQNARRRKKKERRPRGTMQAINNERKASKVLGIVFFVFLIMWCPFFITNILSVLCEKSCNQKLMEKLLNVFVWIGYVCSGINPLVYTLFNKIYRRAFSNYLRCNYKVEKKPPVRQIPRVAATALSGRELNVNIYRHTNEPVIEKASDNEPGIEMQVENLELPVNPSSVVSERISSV
method-description: Serotonin 5-HT2C radioligand binding ([3H]Mesulergine)
condition-description: compound at 0.1 μM; read-out: Inhibition of ligand binding, Serotonin 5-HT2C (percent inhibition of specific binding)
Overview of reported inhibition at 0.1 µM across a group of compounds:
Please answer using a numeric value trailed by its unit.

Example results:
| substance-smiles | test-result |
| --- | --- |
| CNC(=O)c1ccc(-c2cscc2-n2c3c(c4cc(C)ccc42)CN(C)CC3)cc1 | 31% |
| Cc1ccc2c(c1)c1c(n2-c2cscc2-c2cc3ccccc3s2)CCN(C)C1 | 47% |
| Cc1ccc2c(c1)c1c(n2-c2ccsc2)CCN(C)C1 | 95% |

Proceed to the following item.
# get_value(readout='inhibition at 0.1 µM', item= CNC(=O)c1cccc(-c2ccc(-n3c4c(c5cc(C)ccc53)CN(C)CC4)nc2)c1 )
44%

====

assayed-target: human recombinant histamine H1 receptor (Homo sapiens)
Construct: expressed in transfected cells; host or cells: CHO-K1
method-description: Histamine H1 radioligand binding ([3H]Pyrilamine)
condition-description: read-out: Histamine H1 Binding (1 μM), percent inhibition of specific binding; compound at 1 μM; 1.2 nM [3H]Pyrilamine
The following compounds are listed with their measured inhibition at 1 µM values.
Express the reported value numerically, then name its unit.

| substance-smiles | inhibition at 1 µM |
| --- | --- |
| Cc1ccc2c(c1)c1c(n2-c2cscc2C(=O)N(C)C)CCN(C)C1 | 16% |
| Cc1ccc2c(c1)c1c(n2-c2ccccc2-c2cncc3ccccc23)CCN(C)C1 | 47% |
| Cc1ccc2c(c1)c1c(n2-c2ccc(C(F)(F)F)nc2)CCN(C)C1 | -1% |
| COc1ccc(-n2c3c(c4cc(C)ccc42)CN(C)CC3)cn1 | 23% |
| CN1CCc2c(c3cc(Cl)ccc3n2-c2cscc2-c2ccccc2)C1 | 91% |
| CN1CCc2c(c3cc(Cl)ccc3n2-c2cscc2-c2ccc(F)cc2)C1 | 80% |

Please look up its inhibition at 1 µM: Cc1ccc2c(c1)c1c(n2-c2ccc3ccncc3c2)CCN(C)C1
18%

Also Cc1ccc2c(c1)c1c(n2-c2cscc2-c2cccnc2)CCN(C)C1 ?
85%

Okay, and CC(=O)Nc1ccc(-c2cccc(-n3c4c(c5cc(C)ccc53)CN(C)CC4)c2)cn1 ?
8%

====

assayed-target: human recombinant histamine H1 receptor (Homo sapiens, UniProt P35367)
Construct: expressed in transfected cells; host or cells: CHO-K1
Sequence (P35367 whole entry): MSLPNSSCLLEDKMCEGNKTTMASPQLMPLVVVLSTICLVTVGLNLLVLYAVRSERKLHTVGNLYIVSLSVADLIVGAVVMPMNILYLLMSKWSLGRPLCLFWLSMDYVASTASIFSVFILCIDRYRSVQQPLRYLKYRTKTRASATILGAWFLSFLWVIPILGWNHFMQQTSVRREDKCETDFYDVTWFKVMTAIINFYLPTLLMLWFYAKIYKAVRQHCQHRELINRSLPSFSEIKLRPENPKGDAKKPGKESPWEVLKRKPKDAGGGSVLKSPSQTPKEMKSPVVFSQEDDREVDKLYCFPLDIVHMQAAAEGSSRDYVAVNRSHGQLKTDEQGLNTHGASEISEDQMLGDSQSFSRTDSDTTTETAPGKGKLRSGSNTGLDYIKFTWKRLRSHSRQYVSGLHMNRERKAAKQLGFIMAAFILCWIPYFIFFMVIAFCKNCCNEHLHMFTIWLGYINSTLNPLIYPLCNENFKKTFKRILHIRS
method-description: Histamine H1 radioligand binding ([3H]Pyrilamine)
condition-description: read-out: Histamine H1 Binding (1 μM), percent inhibition of specific binding; compound at 1 μM; 1.2 nM [3H]Pyrilamine
measured-property: inhibition at 1 µM (%)
Quick note: give the figure in %, leave out the unit.

Record excerpt, results attached:
| compound | test-result |
| --- | --- |
| Cc1ccc2c(c1)c1c(n2-c2ccccc2-c2ccc3c(ccn3C)c2)CCN(C)C1 [Compound No. 85] | 8 |
| Cc1ccc2c(c1)c1c(n2-c2cscc2-c2ccc(F)nc2)CCN(C)C1 [Compound 35] | 3 |

Please report the recorded inhibition at 1 µM for CN1CCc2c(c3cc(Cl)ccc3n2-c2cscc2-c2ccncc2)C1 [Compound 28] .
46

How about Cc1ccc2c(c1)c1c(n2-c2ccc3cnccc3c2)CCN(C)C1 [Compound 38] ?
-4

Next: CC(=O)Nc1ccc(-c2ccc(-n3c4c(c5cc(C)ccc53)CN(C)CC4)nc2)cn1 [Compound No. 139]
4

Try Cc1ccc2c(c1)c1c(n2-c2ccsc2)CCN(C)C1 [Compound 14] next.
86

Param item: Cc1ccc2c(c1)c1c(n2-c2cscc2-c2cncc3ccccc23)CCN(C)C1 [Compound 34]
6

Repeat with Cc1ccc2c(c1)c1c(n2-c2ccc(-c3cccc4[nH]ncc34)cn2)CCN(C)C1 [Compound No. 147]
8

====

assayed-target: human recombinant histamine H1 receptor (Homo sapiens, UniProt P35367)
Construct: expressed in transfected cells; host or cells: CHO-K1
method-description: Histamine H1 radioligand binding ([3H]Pyrilamine)
condition-description: read-out: Histamine H1 Binding (1 μM), percent inhibition of specific binding; compound at 1 μM; 1.2 nM [3H]Pyrilamine
Param threshold (20%) applies to inhibition at 1 µM; output class 1 when value >= threshold, class 0 when value < threshold.

Worked cases, answers included:
| compound | category-label |
| --- | --- |
| Cc1ccc2c(c1)c1c(n2-c2cncn2C)CCN(C)C1 [Compound 18] | class 1 |
| Cc1cc(C)c2c(c1)c1c(n2-c2ccc3ncccc3c2)CCN(C)C1 [Compound 48] | class 0 |
| CC(=O)Nc1ccc(-c2cscc2-n2c3c(c4cc(C)ccc42)CN(C)CC3)cn1 [Compound 56] | class 0 |

Attention now turns to another entry.
Evaluate Cc1ccc2c(c1)c1c(n2-c2ccc(-c3cncc4ccccc34)cn2)CCN(C)C1 [Compound No. 135] : inhibition at 1 µM at minimum 20%?
class 0

====

Property: inhibition at 1 µM; scope: individual compounds
assayed-target: human recombinant dopamine D2L receptor (Homo sapiens, UniProt P14416)
Construct: expressed in transfected cells; host or cells: CHO
Sequence (P14416 whole entry): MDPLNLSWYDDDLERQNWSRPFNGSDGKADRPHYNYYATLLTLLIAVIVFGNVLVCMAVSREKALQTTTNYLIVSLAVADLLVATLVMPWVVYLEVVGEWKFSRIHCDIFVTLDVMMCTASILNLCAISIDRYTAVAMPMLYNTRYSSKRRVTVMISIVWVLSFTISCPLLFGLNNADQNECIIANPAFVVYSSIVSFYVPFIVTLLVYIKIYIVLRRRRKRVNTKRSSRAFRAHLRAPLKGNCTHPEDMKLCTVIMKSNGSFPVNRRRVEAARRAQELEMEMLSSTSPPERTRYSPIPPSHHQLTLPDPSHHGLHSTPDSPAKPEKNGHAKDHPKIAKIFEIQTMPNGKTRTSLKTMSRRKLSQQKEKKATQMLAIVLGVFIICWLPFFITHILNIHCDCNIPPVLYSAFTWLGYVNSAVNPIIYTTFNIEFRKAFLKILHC
method-description: Dopamine D2L radioligand binding ([3H]Spiperone)
condition-description: read-out: Dopamine D2L (1 μM), percent inhibition of specific binding; compound at 1 μM; 0.16 nM [3H]Spiperone
Only the number, expressed in %, is required.

Field: example entries. Status: answers known.
| compound | inhibition at 1 µM / % |
| --- | --- |
| Cc1ccc2c(c1)c1c(n2-c2ccoc2)CCN(C)C1 [Compound 15] | 19 |
| Cc1ccc2c(c1)c1c(n2-c2ccc(-c3cccc4[nH]ncc34)cn2)CCN(C)C1 [Compound No. 147] | 33 |
| Cc1csc(-c2cccc(-n3c4c(c5cc(C)ccc53)CN(C)CC4)c2)c1 [Compound No. 63] | 19 |

Let us move to another entry and its inhibition at 1 µM.
Value lookup for inhibition at 1 µM; key = Cc1ccc2c(c1)c1c(n2-c2cscc2-c2cnc(N(C)C)nc2)CCN(C)C1 [Compound 40]
7

====

assayed-target: human recombinant serotonin (5-Hydroxytryptamine) 5-HT2C receptor (Homo sapiens, UniProt P28335)
Construct: expressed in transfected cells; host or cells: CHO-K1
method-description: Serotonin 5-HT2C radioligand binding ([3H]Mesulergine)
condition-description: compound at 0.1 μM; read-out: Inhibition of ligand binding, Serotonin 5-HT2C (percent inhibition of specific binding)
Classification field: y = inhibition at 0.1 µM at or over 70%; n = inhibition at 0.1 µM under 70%.

// below: answered compounds
| substance-smiles | category-label |
| --- | --- |
| Cc1cc(C)c2c(c1)c1c(n2-c2cccc3ncccc23)CCN(C)C1 | n |
| Cc1ccc2c(c1)c1c(n2-c2cscc2-c2sccc2C)CCN(C)C1 | y |
| Cc1ccc2c(c1)c1c(n2-c2ccc(-c3ccnn3C)cn2)CCN(C)C1 | n |
| Cc1ccc2c(c1)c1c(n2-c2cscc2-c2cccnc2)CCN(C)C1 | y |
| Cc1ccc2c(c1)c1c(n2-c2cccc(-c3cnn(C)c3)c2)CCN(C)C1 | n |

Please check the record CC(=O)Nc1ccc(-c2ccc(-n3c4c(c5cc(C)ccc53)CN(C)CC4)nc2)cn1 and state if its inhibition at 0.1 µM is at or above 70%.
n

Would you mind doing Cc1csc(-c2ccc(-n3c4c(c5cc(C)ccc53)CN(C)CC4)nc2)c1 as well?
y

What do we get for Cc1ccc2c(c1)c1c(n2-c2ccccc2)CCN(C)C1 ?
y

Attribution: patent US9187471B2
